- tgt: Alpha-2C adrenergic receptor (Homo sapiens)
- Sequence (P18825 whole entry): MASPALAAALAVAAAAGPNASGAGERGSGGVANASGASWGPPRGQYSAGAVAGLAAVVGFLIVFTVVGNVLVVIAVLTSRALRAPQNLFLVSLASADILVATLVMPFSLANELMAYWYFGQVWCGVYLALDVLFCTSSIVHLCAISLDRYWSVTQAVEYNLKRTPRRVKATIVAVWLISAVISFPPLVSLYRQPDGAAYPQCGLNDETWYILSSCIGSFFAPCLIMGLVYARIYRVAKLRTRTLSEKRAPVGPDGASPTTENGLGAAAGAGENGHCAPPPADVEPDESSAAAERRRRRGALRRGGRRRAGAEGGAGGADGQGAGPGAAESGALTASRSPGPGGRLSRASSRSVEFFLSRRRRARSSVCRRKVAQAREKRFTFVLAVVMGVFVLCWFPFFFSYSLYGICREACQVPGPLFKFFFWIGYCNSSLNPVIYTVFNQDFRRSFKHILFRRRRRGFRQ
- Type: functional

compound | tgt | AC50
COc1ccc(C(=O)NCc2ccc(OCCN(C)C)cc2)cc1OC [ITOPRIDE] | Alpha-2C adrenergic receptor (Homo sapiens) | > 30 µM
C#C[C@]1(O)CC[C@H]2[C@@H]3CCc4cc(O)ccc4[C@H]3CC[C@@]21C | Alpha-2C adrenergic receptor (Homo sapiens) | > 10 µM
CN1CC(=O)N2[C@H](c3ccc4c(c3)OCO4)c3[nH]c4ccccc4c3C[C@@H]2C1=O | Alpha-2C adrenergic receptor (Homo sapiens) | > 10 µM
O=C(O)CCCc1ccccc1 | Alpha-2C adrenergic receptor (Homo sapiens) | > 30 µM
CC(C)C(=O)OCC(=O)[C@@]12O[C@H](C3CCCCC3)O[C@@H]1C[C@H]1[C@@H]3CCC4=CC(=O)C=C[C@]4(C)[C@H]3[C@@H](O)C[C@@]12C [CICLESONIDE] | Alpha-2C adrenergic receptor (Homo sapiens) | > 10 µM
COc1cc2c(cc1OC)C(=O)C(CC1CCN(Cc3ccccc3)CC1)C2 (stereo not drawn) | Alpha-2C adrenergic receptor (Homo sapiens) | 6.2 µM
N/N=c1/cc2c(n[nH]1)CCN(C(=O)c1ccccc1)C2 | Alpha-2C adrenergic receptor (Homo sapiens) | > 30 µM
CC(C)NCC(O)COc1ccc(COCCOC(C)C)cc1 (stereo not drawn) | Alpha-2C adrenergic receptor (Homo sapiens) | > 10 µM
O=C(O)c1cccc(-c2noc(-c3ccccc3F)n2)c1 | Alpha-2C adrenergic receptor (Homo sapiens) | > 10 µM
C[C@H]1C[C@@H]2[C@H]([C@@H](O)C[C@@]3(C)[C@H]2CC[C@]3(O)C(=O)CO)[C@@]2(C)C=CC(=O)C=C12 | Alpha-2C adrenergic receptor (Homo sapiens) | > 30 µM
COc1ccc2c(c1)c(CC(=O)OCC(=O)O)c(C)n2C(=O)c1ccc(Cl)cc1 | Alpha-2C adrenergic receptor (Homo sapiens) | > 30 µM
COc1ccc2c(c1)C(=O)N(CCc1ccc(S(=O)(=O)NC(=O)NC3CCCCC3)cc1)C(=O)C2(C)C | Alpha-2C adrenergic receptor (Homo sapiens) | > 30 µM
CCOc1cc(N)c([N+](=O)[O-])cc1C(=O)NC1CCN(CC2CC=CCC2)CC1 (stereo not drawn) [CINITAPRIDE] | Alpha-2C adrenergic receptor (Homo sapiens) | 1.3 µM
Cc1c(C(=O)Nc2ccc(N3C[C@@H](C)O[C@@H](C)C3)nc2)cccc1-c1ccc(OC(F)(F)F)cc1 | Alpha-2C adrenergic receptor (Homo sapiens) | > 10 µM
CC(Cc1ccccc1)NCCC(c1ccccc1)c1ccccc1 (stereo not drawn) | Alpha-2C adrenergic receptor (Homo sapiens) | 2.3 µM
O=C(O)Cc1cn(-c2ccccc2)nc1-c1ccc(Cl)cc1 | Alpha-2C adrenergic receptor (Homo sapiens) | > 30 µM
O=C1CN=C(c2ccccc2)c2cc(Cl)ccc2N1CC(F)(F)F | Alpha-2C adrenergic receptor (Homo sapiens) | > 30 µM
CN[C@@H](C)[C@H](O)c1ccccc1 | Alpha-2C adrenergic receptor (Homo sapiens) | > 10 µM
NC1=NC(=O)C(c2ccccc2)O1 (stereo not drawn) | Alpha-2C adrenergic receptor (Homo sapiens) | > 10 µM
CN(C)C(=O)OC1N=C(c2ccccc2)c2cc(Cl)ccc2N(C)C1=O (stereo not drawn) | Alpha-2C adrenergic receptor (Homo sapiens) | > 10 µM
[H]/N=C(/N)c1ccc(NCc2nc3cc(C(=O)N(CCC(=O)O)c4ccccn4)ccc3n2C)cc1 | Alpha-2C adrenergic receptor (Homo sapiens) | > 30 µM
CN1C(=O)COc2c(C(=O)NC3CN4CCC3CC4)cc(Cl)cc21 (stereo not drawn) | Alpha-2C adrenergic receptor (Homo sapiens) | > 30 µM
CC(=O)O[C@@]12CO[C@@H]1C[C@H](O)[C@@]1(C)C(=O)[C@H](O)C3=C(C)[C@@H](OC(=O)[C@H](O)[C@@H](NC(=O)OC(C)(C)C)c4ccccc4)C[C@@](O)([C@@H](OC(=O)c4ccccc4)[C@H]21)C3(C)C [DOCETAXEL ANHYDROUS] | Alpha-2C adrenergic receptor (Homo sapiens) | > 30 µM
C[C@H]1O[C@H](O[C@H]2[C@H](O)[C@@H](O)[C@@H](O[C@H]3[C@H](O)[C@@H](O)C(O)O[C@@H]3CO)O[C@@H]2CO)[C@H](O)[C@@H](O)[C@@H]1N[C@H]1C=C(CO)[C@@H](O)[C@H](O)[C@H]1O (stereo partly drawn) | Alpha-2C adrenergic receptor (Homo sapiens) | > 10 µM
CN1C(=O)CC(C)(c2ccccc2)C1=O (stereo not drawn) [METHSUXIMIDE] | Alpha-2C adrenergic receptor (Homo sapiens) | > 10 µM
CC[C@]1(O)C[C@@H]2CN(CCc3c([nH]c4ccccc34)[C@@](C(=O)OC)(c3cc4c(cc3OC)N(C)[C@H]3[C@@](O)(C(N)=O)[C@H](O)[C@]5(CC)C=CCN6CC[C@]43[C@@H]65)C2)C1 | Alpha-2C adrenergic receptor (Homo sapiens) | > 30 µM
C#CC1(OC(N)=O)CCCCC1 [ETHINAMATE] | Alpha-2C adrenergic receptor (Homo sapiens) | > 10 µM
CCOC(=O)[C@H](CCc1ccccc1)N[C@H]1CCCN2CCC[C@@H](C(=O)O)N2C1=O | Alpha-2C adrenergic receptor (Homo sapiens) | > 30 µM
CN1C(=O)N(C)C2C1N(C)C(=O)N2C (stereo not drawn) | Alpha-2C adrenergic receptor (Homo sapiens) | 14 µM
CN(C)CCCN1c2ccccc2Sc2ccccc21 | Alpha-2C adrenergic receptor (Homo sapiens) | 0.82 µM
CC(=O)NS(=O)(=O)c1ccc(N)cc1 [SULFACETAMIDE] | Alpha-2C adrenergic receptor (Homo sapiens) | > 10 µM
CN1CC[C@]23CCCC[C@H]2[C@H]1Cc1ccc(O)cc13 | Alpha-2C adrenergic receptor (Homo sapiens) | > 30 µM
N[C@@H](CSCC(=O)O)C(=O)O | Alpha-2C adrenergic receptor (Homo sapiens) | > 30 µM
